These measurements were taken from patent US20110158992A1.

Molecular target: T1, biotinylated huIL-23R-IgG (human, UniProt Q5VWK5 24-353, biotinylated)
T1 construct: not shown: human IgG1 Fc
T1 sequence: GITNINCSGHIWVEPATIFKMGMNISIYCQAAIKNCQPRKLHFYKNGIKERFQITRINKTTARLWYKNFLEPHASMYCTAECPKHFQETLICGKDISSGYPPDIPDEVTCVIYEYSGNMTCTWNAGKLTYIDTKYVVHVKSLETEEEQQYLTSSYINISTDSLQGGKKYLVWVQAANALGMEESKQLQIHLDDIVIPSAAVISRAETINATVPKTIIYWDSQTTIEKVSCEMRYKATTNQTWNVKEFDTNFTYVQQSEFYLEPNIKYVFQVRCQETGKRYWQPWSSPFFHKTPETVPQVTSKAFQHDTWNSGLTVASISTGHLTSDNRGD
Assay: ECL binding assay, periplasmic Fab extracts, biotinylated huIL-23R-IgG; AUC vs parental 8B10 Fab
Listing of entries alongside the reported Binding (% of w.t.).
Observable: Binding (% of w.t.)

binder="chimeric 8B10 Fab, VH Y105A (Fab, V domains shown, Rat V domains with human CH1 and CL; E. coli periplasmic extract) VH: EVKLVESGGGLEQPKGSLKLSCTVSGFDFNSYGMSWVRQAPGKGLDLVADINSKSYNYATYYADSVKDRFTISRDDSQSMVYLEMDNLKTEDTALYYCTVHHSDAFEYWGQGVMVTVSS VL: DIQMTQSPASLSASLGETVSIECLASEDIYNNLAWYQQKPGKSPQLLIYHASSLQDGVPSRFSGSGSGTQYSLKINSLESEDAATYFCLQDSEYPPTFGGGTKLELKR" measured_result="18.3 % of w.t."
binder="chimeric 8B10 Fab, VH S31A (Fab, V domains shown, Rat V domains with human CH1 and CL; E. coli periplasmic extract) VH: EVKLVESGGGLEQPKGSLKLSCTVSGFDFNAYGMSWVRQAPGKGLDLVADINSKSYNYATYYADSVKDRFTISRDDSQSMVYLEMDNLKTEDTALYYCTVHHSDYFEYWGQGVMVTVSS VL: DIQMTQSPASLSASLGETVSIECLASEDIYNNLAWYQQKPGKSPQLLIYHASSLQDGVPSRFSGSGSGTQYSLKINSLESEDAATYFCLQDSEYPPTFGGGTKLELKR" measured_result="100 % of w.t."
